- Test system: Raji cells
- Protocol Details: BrdU incorporation assay, glucocorticoid sensitivity of oligonucleotide-transfected Raji cells
- Assay type: cell-based, human
- Experimental Parameters: dexamethasone 1 μM, quadruplicate (Table 7), label dexamethasone = no oligonucleotide transfected
Outcome Measure: cell proliferation inhibitory rate

[[record]]
substance = "Oligonucleotide 3: an oligonucleotide having a base sequence represented by SEQ ID NO: 3 (5′-TAAGATGACTTTCTTTTCCCCCACGTATCCT-3′) (listed as DNA, chemistry not given here)"
outcome_measure = "cell proliferation inhibitory rate"
observed_result = "37.164%"

[[record]]
substance = "Oligonucleotide 4: an oligonucleotide having a base sequence represented by SEQ ID NO: 4 (5′-TTTGTCCCCATTATATAGCATTT-3′) (listed as DNA, chemistry not given here)"
outcome_measure = "cell proliferation inhibitory rate"
observed_result = "28.863%"

[[record]]
substance = "Oligonucleotide 5: an oligonucleotide having a base sequence represented by SEQ ID NO: 5 (5′-CAGATTTTTTTATTATGATGT-3′) (listed as DNA, chemistry not given here)"
outcome_measure = "cell proliferation inhibitory rate"
observed_result = "32.895%"

[[record]]
substance = "Oligonucleotide 2: an oligonucleotide having a base sequence represented by SEQ ID NO: 2 (5′-AAAAGGGCACAGCTTCTTTTCCCATTTAATGAAA-3′) (listed as DNA, chemistry not given here)"
outcome_measure = "cell proliferation inhibitory rate"
observed_result = "22.769%"


====

// reported cell proliferation inhibitory rate for each item listed
- System: Raji cells
- Protocol Details: BrdU incorporation assay, glucocorticoid sensitivity of oligonucleotide-transfected Raji cells
- Format: cell-based, human
- Experimental Parameters: dexamethasone 0.5 μM, quadruplicate (Table 7), label dexamethasone = no oligonucleotide transfected
Outcome Measure: cell proliferation inhibitory rate (%)

[[record]]
substance = "Oligonucleotide 3: an oligonucleotide having a base sequence represented by SEQ ID NO: 3 (5′-TAAGATGACTTTCTTTTCCCCCACGTATCCT-3′) (listed as DNA, chemistry not given here)"
outcome_measure = "cell proliferation inhibitory rate"
observed_result = 34.134

[[record]]
substance = "Oligonucleotide 4: an oligonucleotide having a base sequence represented by SEQ ID NO: 4 (5′-TTTGTCCCCATTATATAGCATTT-3′) (listed as DNA, chemistry not given here)"
outcome_measure = "cell proliferation inhibitory rate"
observed_result = 23.397

[[record]]
substance = "Oligonucleotide 5: an oligonucleotide having a base sequence represented by SEQ ID NO: 5 (5′-CAGATTTTTTTATTATGATGT-3′) (listed as DNA, chemistry not given here)"
outcome_measure = "cell proliferation inhibitory rate"
observed_result = 26.632

[[record]]
substance = "Oligonucleotide 2: an oligonucleotide having a base sequence represented by SEQ ID NO: 2 (5′-AAAAGGGCACAGCTTCTTTTCCCATTTAATGAAA-3′) (listed as DNA, chemistry not given here)"
outcome_measure = "cell proliferation inhibitory rate"
observed_result = 19.044


====

// reported GRβ/GAPDH for each item listed
- Test system: GRα and GRβ
- Protocol Details: GRα and GRβ expression levels in Raji cells transfected with oligonucleotide (RT-PCR and PCR)
- Type: cell-based, human
- Experimental Parameters: oligonucleotide 300 nM
Outcome Measure: GRβ/GAPDH

[[record]]
substance = "Oligonucleotide 1: an oligonucleotide having a base sequence represented by SEQ ID NO: 1 (5′-CTTTCTGGTTTTAACCACATAACATTCTATA-3′) (listed as DNA, chemistry not given here)"
observed_result = 1.519

[[record]]
substance = "Oligonucleotide 4: an oligonucleotide having a base sequence represented by SEQ ID NO: 4 (5′-TTTGTCCCCATTATATAGCATTT-3′) (listed as DNA, chemistry not given here)"
observed_result = 1.533

[[record]]
substance = "Oligonucleotide 3: an oligonucleotide having a base sequence represented by SEQ ID NO: 3 (5′-TAAGATGACTTTCTTTTCCCCCACGTATCCT-3′) (listed as DNA, chemistry not given here)"
observed_result = 1.471

[[record]]
substance = "Oligonucleotide 2: an oligonucleotide having a base sequence represented by SEQ ID NO: 2 (5′-AAAAGGGCACAGCTTCTTTTCCCATTTAATGAAA-3′) (listed as DNA, chemistry not given here)"
observed_result = 1.467

[[record]]
substance = "Oligonucleotide 5: an oligonucleotide having a base sequence represented by SEQ ID NO: 5 (5′-CAGATTTTTTTATTATGATGT-3′) (listed as DNA, chemistry not given here)"
observed_result = 1.461

